Tested on: Staphylococcuss aureus HPC 308
assay explanation: Antibacterial spectrum, MIC by twofold agar dilution method
Format: cell-based
assay setup: 10^6 cfu/ml; clinically isolated strain, Gram +; 18 hrs at 37° C
Hi there, I'd appreciate the recorded MIC for every entry that follows.
One number for each entry, in µg/mL.

CC1Sc2c(C(=O)O)c(=O)c3cc(F)c(N4CC[C@H](N(C)C)C4)c(Cl)c3n21 (some centres unmarked) : 0.78

For every record below, what is its MIC?
1. CC1Sc2c(C(=O)O)c(=O)c3cc(F)c(N4CCC(N(C)C)C4)c(Cl)c3n21 (centres unmarked)
2. CC1Sc2c(C(=O)O)c(=O)c3cc(F)c(N4CC[C@H](N(C)C)C4)c(F)c3n21 (some centres unmarked)
3. CC1Sc2c(C(=O)O)c(=O)c3cc(F)c(N4CC[C@H](N)C4)c(Cl)c3n21 (single isomer, unassigned)
4. CC1Sc2c(C(=O)O)c(=O)c3cc(F)c(N4CCC(N(C)C)C4)c(F)c3n21 (centres unmarked)

1.56
3.13
0.78
1.56

###

Field: MIC. Provide a value for each of the compounds that follow.
System: Serratia marcescens HNR 1544
assay explanation: Antibacterial spectrum, MIC by twofold agar dilution method
Type: cell-based
assay setup: HNR1544, 10^6 cfu/ml, clinically isolated strain, Gram -, 18 hrs at 37° C
Experimental: Overnight cultures in Mueller-Hinton broth were suspended by buffered saline gelatin. One loopful of the bacterial suspension (10^6 or 10^8 colony-forming units/ml) was incubated onto the plates containing test compounds. The plates were incubated for 18 hrs at 37° C. The MIC was defined by the lowest concentration of the drug that inhibited visible growth of bacteria.
Answers are plain numbers, in µg/mL.

Example compounds with recorded MIC:
CC1Sc2c(C(=O)O)c(=O)c3cc(F)c(N4CCC(N)C4)c(Cl)c3n21 (centres unmarked) [Example 34] : 0.05
CC1Sc2c(C(=O)O)c(=O)c3cc(F)c(N4CC[C@H](N)C4)c(F)c3n21 (single isomer, unassigned) [Example 27] : 0.05
CC1Sc2c(C(=O)O)c(=O)c3cc(F)c(N4CCC(N(C)C)C4)c(F)c3n21 (centres unmarked) [Example 36] : 0.2
CC1Sc2c(C(=O)O)c(=O)c3cc(F)c(N4CC[C@H](N(C)C)C4)c(Cl)c3n21 (some centres unmarked) [Example 35] : 0.1
CC1Sc2c(C(=O)O)c(=O)c3cc(F)c(N4CC[C@H](N)C4)c(Cl)c3n21 (single isomer, unassigned) [Example 29] : 0.05

Hi! Can you tell me MIC for each of these compounds?
1. CC1Sc2c(C(=O)O)c(=O)c3cc(F)c(N4CC[C@H](N(C)C)C4)c(F)c3n21 (some centres unmarked) [Example 37]
2. CC1Sc2c(C(=O)O)c(=O)c3cc(F)c(N4CCC(N(C)C)C4)c(Cl)c3n21 (centres unmarked) [Example 39]

0.2
0.2

Please indicate MIC recorded for CC1Sc2c(C(=O)O)c(=O)c3cc(F)c(N4CCC(N)C4)c(F)c3n21 (centres unmarked) [Example 33]
0.05

###

System: Enterococcus faecalis HPC 975
assay explanation: Antibacterial spectrum, MIC by twofold agar dilution method
Format: cell-based
assay setup: HPC975, 10^6 cfu/ml, clinically isolated strain, Gram +, 18 hrs at 37° C
Please go through the items and note down their MIC.
Remember to follow the number with its unit.

CC1Sc2c(C(=O)O)c(=O)c3cc(F)c(N4CC[C@H](N)C4)c(Cl)c3n21 (single isomer, unassigned) [Example 29] : 6.25 µg/mL

Can you give me MIC for all of these, one by one?
1. CC1Sc2c(C(=O)O)c(=O)c3cc(F)c(N4CC[C@H](N)C4)c(F)c3n21 (single isomer, unassigned) [Example 27]
2. CC1Sc2c(C(=O)O)c(=O)c3cc(F)c(N4CCC(N)C4)c(F)c3n21 (centres unmarked) [Example 33]
3. CC1Sc2c(C(=O)O)c(=O)c3cc(F)c(N4CCC(N(C)C)C4)c(Cl)c3n21 (centres unmarked) [Example 39]
4. CC1Sc2c(C(=O)O)c(=O)c3cc(F)c(N4CCC(N(C)C)C4)c(F)c3n21 (centres unmarked) [Example 36]
5. CC1Sc2c(C(=O)O)c(=O)c3cc(F)c(N4CC[C@H](N(C)C)C4)c(F)c3n21 (some centres unmarked) [Example 37]

["6.25 µg/mL", "6.25 µg/mL", "12.5 µg/mL", "6.25 µg/mL", "12.5 µg/mL"]

# return MIC for each item in the list
1. CC1Sc2c(C(=O)O)c(=O)c3cc(F)c(N4CCC(N)C4)c(Cl)c3n21 (centres unmarked) [Example 34]
2. CC1Sc2c(C(=O)O)c(=O)c3cc(F)c(N4CC[C@H](N(C)C)C4)c(Cl)c3n21 (some centres unmarked) [Example 35]

1. 12.5 µg/mL
2. 12.5 µg/mL

###

Test system: Acinetobacter calcoaceticus HNR 939
assay explanation: Antibacterial spectrum, MIC by twofold agar dilution method
Type: cell-based
assay setup: HNR939, 10^6 cfu/ml, clinically isolated strain, Gram -, 18 hrs at 37° C
observation type: MIC (µg/mL)
Answers are plain numbers, in µg/mL.

Consider the following illustrative entries.
CC1Sc2c(C(=O)O)c(=O)c3cc(F)c(N4CC[C@H](N)C4)c(F)c3n21 (single isomer, unassigned) [Example 27] : 1.56
CC1Sc2c(C(=O)O)c(=O)c3cc(F)c(N4CC[C@H](N(C)C)C4)c(Cl)c3n21 (stereo partly shown) [Example 35] : 1.56
CC1Sc2c(C(=O)O)c(=O)c3cc(F)c(N4CCC(N)C4)c(F)c3n21 (stereo not shown) [Example 33] : 1.56

Switching to the query record.
Fill in MIC for CC1Sc2c(C(=O)O)c(=O)c3cc(F)c(N4CCC(N(C)C)C4)c(F)c3n21 (stereo not shown) [Example 36] tested with Acinetobacter calcoaceticus HNR 939.
0.78

###

System: Staphylococuss aureus FDA 209PJC-1
assay explanation: Antibacterial spectrum, MIC by twofold agar dilution method
Format: cell-based
assay setup: 10^6 cfu/ml; standard laboratory strain, Gram +; 18 hrs at 37° C
Hi there, I'd appreciate the recorded MIC for every entry that follows.
Write the quantity with the unit trailing the number.

CC1Sc2c(C(=O)O)c(=O)c3cc(F)c(N4CC[C@H](N)C4)c(Cl)c3n21 (single isomer, unassigned) : 0.05 µg/mL

Go through the list and state MIC for each entry.
1. CC1Sc2c(C(=O)O)c(=O)c3cc(F)c(N4CCC(N)C4)c(Cl)c3n21 (centres unmarked)
2. CC1Sc2c(C(=O)O)c(=O)c3cc(F)c(N4CC[C@H](N(C)C)C4)c(F)c3n21 (some centres unmarked)
3. CC1Sc2c(C(=O)O)c(=O)c3cc(F)c(N4CC[C@H](N(C)C)C4)c(Cl)c3n21 (some centres unmarked)
4. CC1Sc2c(C(=O)O)c(=O)c3cc(F)c(N4CCC(N(C)C)C4)c(Cl)c3n21 (centres unmarked)
5. CC1Sc2c(C(=O)O)c(=O)c3cc(F)c(N4CCC(N)C4)c(F)c3n21 (centres unmarked)
6. CC1Sc2c(C(=O)O)c(=O)c3cc(F)c(N4CCC(N(C)C)C4)c(F)c3n21 (centres unmarked)

["0.05 µg/mL", "0.2 µg/mL", "0.1 µg/mL", "0.2 µg/mL", "0.025 µg/mL", "0.2 µg/mL"]

Name the recorded MIC of the compound listed here: CC1Sc2c(C(=O)O)c(=O)c3cc(F)c(N4CC[C@H](N)C4)c(F)c3n21 (single isomer, unassigned)
0.025 µg/mL

###

System: Male mice of ddY strain
assay explanation: Convulsion inducing activity in combination with fenbufen
assay setup: 300 mg/kg (i.p.), 30 min after fenbufen 100 mg/kg orally
Counter-ions that a name gives are not always drawn.
For each entry below, report its Number of convulsion induced/Number of animals value.

Sample answers from the record:
CC1Sc2c(C(=O)O)c(=O)c3cc(F)c(N4CCC(N)C4)c(Cl)c3n21 (stereo not drawn) : 0/6
CC1Sc2c(C(=O)O)c(=O)c3cc(F)c(N4CC[C@H](N)C4)c(Cl)c3n21 (single isomer, unassigned) : 0/6
CC1Sc2c(C(=O)O)c(=O)c3cc(F)c(N4CCC(N)C4)cc3n21 (stereo not drawn) [Reference Drug D, reference compound] : 0/6
O=C(O)c1cn(C2CC2)c2cc(N3CCNCC3)c(F)cc2c1=O [Reference Drug A, ciprofloxacin hydrochloride, reference compound] : 6/6
CC1Sc2c(C(=O)O)c(=O)c3cc(F)c(N4CC[C@H](N)C4)c(F)c3n21 (single isomer, unassigned) : 0/6

# return Number of convulsion induced/Number of animals for CC1Sc2c(C(=O)O)c(=O)c3cc(F)c(N4CCC(N)C4)c(F)c3n21 (stereo not drawn) , test system: Male mice of ddY strain
0/6

###

Please respond with reported Number of convulsion induced/Number of animals for every item in the list.
Tested on: Male mice of ddY strain
assay explanation: Convulsion inducing activity in combination with fenbufen
assay setup: 100 mg/kg (i.p.), 30 min after fenbufen 100 mg/kg orally
Counter-ions that a name gives are not always drawn.

The examples below pair each entry with its known result.
CC1Sc2c(C(=O)O)c(=O)c3cc(F)c(N4CC[C@H](N)C4)c(Cl)c3n21 (single isomer, unassigned) [Example 29] : 0/6
CC1Sc2c(C(=O)O)c(=O)c3cc(F)c(N4CC[C@H](N)C4)c(F)c3n21 (single isomer, unassigned) [Example 27] : 0/6
CC1Sc2c(C(=O)O)c(=O)c3cc(F)c(N4CCNCC4)c(F)c3n21 (stereo not shown) [Reference Drug C, reference compound] : 6/6
O=C(O)c1cn(C2CC2)c2cc(N3CCNCC3)c(F)cc2c1=O [Reference Drug A, ciprofloxacin hydrochloride, reference compound] : 4/6
CC1Sc2c(C(=O)O)c(=O)c3cc(F)c(N4CCC(N)C4)cc3n21 (stereo not shown) [Reference Drug D, reference compound] : 0/6

Batch request: Number of convulsion induced/Number of animals per item, same order as input.
1. CC1Sc2c(C(=O)O)c(=O)c3cc(F)c(N4CCC(N)C4)c(F)c3n21 (stereo not shown) [Example 33]
2. CC1Sc2c(C(=O)O)c(=O)c3cc(F)c(N4CCC(N)C4)c(Cl)c3n21 (stereo not shown) [Example 34]

1. 0/6
2. 0/6
